Each item that follows carries a reported Max slope.
Tested on: cornea
EXPERIMENT SUMMARY: Porcine Eye Corneal Stiffening Assay
APPLIED CONDITIONS: maximum slope of force vs distance curve of corneal flap; UVA 9 mm circle, 365 nm, 30 mW/cm^2, CW, 8.1 min, 15 J, 21% O2, 37.0° C.; untreated cornea = 10.1

{"MOLECULE": "CC1(CCC(=O)N(CCC2(C)N=N2)CC(=O)O)N=N1 [Example 14]", "EXPERIMENTAL TARGET": "cornea", "Max slope": 10.66}
{"MOLECULE": "CC1(CCNCC(=O)NCCC2(C)N=N2)N=N1 [Example 1]", "EXPERIMENTAL TARGET": "cornea", "Max slope": 11.28}
{"MOLECULE": "CC1(CCN(CCC2(C)N=N2)CC(=O)O)N=N1 [Example 13]", "EXPERIMENTAL TARGET": "cornea", "Max slope": 12.38}
{"MOLECULE": "CC1(CCNCC(=O)N[C@@H](CC(=O)O)C(=O)NCCC2(C)N=N2)N=N1 [Example 17]", "EXPERIMENTAL TARGET": "cornea", "Max slope": 10.13}
